molecular target: JAK2 (Homo sapiens, UniProt O60674); construct: The kinase domain of humanJAK2 was amplified from U937mRNA; His tag (from pFastBac HTc vector; nickel chelate purification) (N); made in house; host or cells: baculovirus; virus made in Sf9, large-scale expression in High Five insect cells; experiment: JAK2 kinase domain capture-based ELISA kinase assay; format: biochemical; details: Table 6; inhibit 50% of activity at 50 μM
Sequence (O60674 849-1124 limits assumed): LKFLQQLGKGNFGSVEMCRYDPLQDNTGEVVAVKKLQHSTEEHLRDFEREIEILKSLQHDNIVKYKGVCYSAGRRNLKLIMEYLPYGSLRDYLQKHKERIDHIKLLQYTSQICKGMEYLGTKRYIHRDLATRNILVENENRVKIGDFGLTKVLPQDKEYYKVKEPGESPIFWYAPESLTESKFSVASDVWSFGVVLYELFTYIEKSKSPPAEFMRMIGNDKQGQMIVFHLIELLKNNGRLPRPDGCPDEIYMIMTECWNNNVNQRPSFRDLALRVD
# reported IC50; entries follow

Reference set, count: 10
- CN(C)C(=O)COc1cccc(Nc2nc(-c3ccccc3Cl)cn3ccnc23)c1: < 50 µM
- FC(F)C(F)(F)Oc1cccc(Nc2nc(-c3cc(C(F)(F)F)cc(C(F)(F)F)c3)cn3ccnc23)c1: > 50 µM
- CCNc1nc(-c2cccc(O)c2)cn2ccnc12: < 50 µM
- COc1ccc(Nc2nc(-c3c(C)cccc3C)cn3ccnc23)cn1: > 50 µM
- CCN(CCO)c1ccc(Nc2nc(-c3ccccc3CO)cn3ccnc23)cc1 [drawing 96]: < 50 µM
- CC(=O)Nc1ccc(Nc2nc(-c3ccccc3F)cn3ccnc23)cc1: < 50 µM
- c1ccc(Nc2nc(-c3cccnc3)cn3ccnc23)cc1: < 50 µM
- CCNc1nc(-c2ccc(O)c(OC)c2)cn2ccnc12: < 50 µM
- Clc1ccccc1-c1cn2ccnc2c(Nc2ccc3[nH]ccc3c2)n1: < 50 µM
- c1ccc(Nc2nc(-c3ccc4c(c3)OCO4)cn3ccnc23)cc1: < 50 µM

Request: Which value of IC50 has been reported for CCC(CO)Nc1nc(-c2ccco2)cn2ccnc12 (stereo not shown) in the records?
Result: < 50 µM

Request: Quick one: IC50 of CC(=O)Nc1cccc(-c2cn3ccnc3c(Nc3ccc(N4CCOCC4)cc3)n2)c1 ?
Result: < 50 µM

Request: If you can, please state the reported IC50 value of CN(C)C(=O)COc1cccc(Nc2nc(-c3ccccc3)cn3ccnc23)c1 .
Result: < 50 µM

Request: So what's the measured IC50 for this one? COc1cc(-c2cn3ccnc3c(NC3CC3)n2)ccc1O
Result: < 50 µM

Request: Which IC50 reading was recorded for the compound CCCC/C=C/c1cn2ccnc2c(Nc2ccc(OC)nc2)n1 ?
Result: < 50 µM

Request: What value of IC50 has been recorded for this entry: Fc1ccc(-c2cn3ccnc3c(Nc3ccc4[nH]ccc4c3)n2)cc1Cl
Result: > 50 µM

----------
Target: JAK2 (Homo sapiens)
Construct: The kinase domain of humanJAK2 was amplified from U937mRNA; His tag (from pFastBac HTc vector; nickel chelate purification) (N); made in house; host or cells: baculovirus; virus made in Sf9, large-scale expression in High Five insect cells
Experiment: JAK2 kinase domain capture-based ELISA kinase assay
Assay type: biochemical
Settings: Table 6; inhibit 50% of activity at 50 μM
Experimental: For screening purposes, compounds were diluted in 96 well plates at a concentration of 50 μM or 20 μM. Plates were warmed at 37° C. for 30 minutes before assay. […] The biotinylated substrate biotin-EGPWLEEEEEAYGWMDF-NH2 (SEQ ID NO:9) (final concentration 5 μM) was used as substrate, and tyrosine phosphorylation was quantitated following transfer to an avidin coated ELISA plate using peroxidase-linked anti-phospho-tyrosine antibody PY20. […]
measuredQuantity: IC50

• c1ccc2cc(-c3cn4ccnc4c(Nc4ccc(N5CCOCC5)cc4)n3)ccc2c1 = < 50 µM
• COc1cc(-c2cn3ccnc3c(NCC3CC3)n2)ccc1O = > 50 µM
• FC(F)(F)c1cc(-c2cn3ccnc3c(NCC3CCOCC3)n2)cc(C(F)(F)F)c1 = < 50 µM
• Brc1cn2ccnc2c(Nc2ccccc2)n1 = < 50 µM
• Brc1cn2ccnc2c(Nc2ccc(N3CCOCC3)cc2)n1 [drawing 100] = < 50 µM

Request: API: value(readout=IC50, system=JAK2 (Homo sapiens)) for record c1ccc(CN2CC[C@@H](Nc3nc(-c4ccc5c(c4)OCO5)cn4ccnc34)C2)cc1
Result: > 50 µM

Request: Requested read-out IC50, target or system JAK2 (Homo sapiens), entry c1cncc(CCNc2nc(-c3ccco3)cn3ccnc23)c1
Result: > 50 µM

Request: GET /values?readout=IC50&system=JAK2 (Homo sapiens)&item= OCc1ccccc1-c1cn2ccnc2c(Nc2ccc(N3CCOCC3)cc2)n1 [drawing 142]
Result: < 50 µM

Request: IC50 of Fc1ccccc1-c1cn2ccnc2c(NCCc2cccnc2)n1 on JAK2 (Homo sapiens)?
Result: < 50 µM

Request: Given the entry O=C(O)c1cccc(-c2cn3ccnc3c(Nc3ccc(N4CCOCC4)cc3)n2)c1 , what IC50 was observed with JAK2 (Homo sapiens)?
Result: < 50 µM

Request: Quick check: IC50 on JAK2 (Homo sapiens), item COc1ccc(Nc2nc(-c3ccccc3OC)cn3ccnc23)cn1 ?
Result: < 50 µM

Request: IC50, test system JAK2 (Homo sapiens), entry Oc1cccc(-c2cn3ccnc3c(N3CCOCC3)n2)c1
Result: < 50 µM

----------
Target: TYK2 (Homo sapiens, UniProt P29597)
Construct: The kinase domain of humanTYK2 was amplified from A549 mRNA; His tag (from pBlueBacHis2A vector; nickel chelate purification) (N); made in house; host or cells: baculovirus; virus made in Sf9, large-scale expression in High Five insect cells
Sequence (P29597 897-1176 limits assumed): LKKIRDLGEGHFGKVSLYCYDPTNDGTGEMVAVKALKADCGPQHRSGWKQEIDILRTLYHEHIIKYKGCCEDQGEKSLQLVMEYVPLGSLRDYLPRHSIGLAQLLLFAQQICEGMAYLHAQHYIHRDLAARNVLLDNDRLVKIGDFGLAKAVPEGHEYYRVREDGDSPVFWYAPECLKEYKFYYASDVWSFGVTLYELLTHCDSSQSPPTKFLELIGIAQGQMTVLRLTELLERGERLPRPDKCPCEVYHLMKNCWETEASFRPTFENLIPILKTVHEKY
Test: TYK2 kinase domain capture-based ELISA kinase assay
Format: biochemical
Conditions: Table 6; inhibit 50% of activity at 50 μM
Description: For screening purposes, compounds were diluted in 96 well plates at a concentration of 50 μM or 20 μM. Plates were warmed at 37° C. for 30 minutes before assay. […] The biotinylated substrate biotin-EGPWLEEEEEAYGWMDF-NH2 (SEQ ID NO:9) (final concentration 5 μM) was used as substrate, and tyrosine phosphorylation was quantitated following transfer to an avidin coated ELISA plate using peroxidase-linked anti-phospho-tyrosine antibody PY20. […]
Let's look at some molecules and their measured IC50.

# example entries with known answers
* c1ccc(-c2cn3ccnc3c(NCc3ccncc3)n2)cc1 | > 50 µM
* COc1cc(-c2cn3ccnc3c(NC3CC3)n2)ccc1O | > 50 µM
* O=C(O)c1cccc(-c2cn3ccnc3c(Nc3ccc4cn[nH]c4c3)n2)c1 | < 50 µM
* c1ccc(Nc2nc(-c3ccc4c(c3)OCO4)cn3ccnc23)cc1 | < 50 µM
* CCN(CCO)c1ccc(Nc2nc(-c3c(OC)cccc3OC)cn3ccnc23)cc1 | > 50 µM

Request: Can you look up IC50 on TYK2 (Homo sapiens, UniProt P29597) for CC(=O)Nc1ccc(Nc2nc(-c3ccc4ccccc4c3)cn3ccnc23)cc1 ?
Result: < 50 µM

Request: What IC50 appears in the records for this molecule with TYK2 (Homo sapiens, UniProt P29597)? CCNc1nc(-c2ccc(N(C)C)cc2)cn2ccnc12
Result: > 50 µM

Request: Any idea what IC50 came out for c1cncc(-c2cn3ccnc3c(NCCc3ccncc3)n2)c1 on TYK2 (Homo sapiens, UniProt P29597)?
Result: > 50 µM

Request: Give IC50 (TYK2 (Homo sapiens, UniProt P29597)) of the following molecule: O=C(O)CCc1ccc(-c2cn3ccnc3c(NCc3ccco3)n2)cc1
Result: < 50 µM

Request: Form: Entry = O=C(O)c1ccc(-c2cn3ccnc3c(Nc3ccc(Cl)cc3)n2)cc1 | System = TYK2 (Homo sapiens, UniProt P29597) | IC50 = ____
Result: < 50 µM

Request: Find IC50 (TYK2 (Homo sapiens, UniProt P29597)) for the entry CC(=O)Nc1cccc(-c2cn3ccnc3c(Nc3ccc(N4CCOCC4)cc3)n2)c1
Result: < 50 µM

Request: What measured IC50 is associated with OCc1ccccc1-c1cn2ccnc2c(Nc2ccc(N3CCOCC3)cc2)n1 [drawing 142] on TYK2 (Homo sapiens, UniProt P29597)?
Result: > 50 µM

Request: GET /values?readout=IC50&system=TYK2 (Homo sapiens, UniProt P29597)&item= Cc1ccc(S(=O)(=O)Nc2ccc(Nc3nc(-c4cccc(N)c4)cn4ccnc34)cc2)cc1
Result: < 50 µM

Request: Find IC50 (TYK2 (Homo sapiens, UniProt P29597)) for the entry c1cn2cc(-c3ccc4c(c3)OCO4)nc(NC3CC3)c2n1
Result: < 50 µM

Request: Recall the recorded IC50 for Nc1cccc(-c2cn3ccnc3c(Nc3ccccc3)n2)c1 [drawing 87] with TYK2 (Homo sapiens, UniProt P29597) and state it.
Result: < 50 µM

----------
target: JAK3 (Homo sapiens, UniProt P52333); construct: The kinase domain of humanJAK3 was amplified from U937mRNA; His tag (from pFastBac HTb vector; nickel chelate purification) (N); made in house; host or cells: baculovirus; virus made in Sf9, large-scale expression in High Five insect cells; assay: JAK3 kinase domain capture-based ELISA kinase assay; assay type: biochemical; conditions: Table 6; inhibit 50% of activity at 50 μM
Sequence (P52333 822-1111 limits assumed): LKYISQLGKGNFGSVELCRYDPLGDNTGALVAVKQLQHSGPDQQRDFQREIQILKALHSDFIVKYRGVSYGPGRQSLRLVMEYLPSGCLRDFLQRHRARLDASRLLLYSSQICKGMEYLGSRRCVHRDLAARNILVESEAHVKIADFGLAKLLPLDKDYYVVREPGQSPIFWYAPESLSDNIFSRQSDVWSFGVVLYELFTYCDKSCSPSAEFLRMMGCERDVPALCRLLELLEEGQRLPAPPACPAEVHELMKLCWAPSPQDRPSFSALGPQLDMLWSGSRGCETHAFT
In this section, each of the compounds is paired with its reported IC50.

Below, 3 compounds whose answers are already recorded.
- Cc1ccc(S(=O)(=O)Nc2ccc(Nc3nc(-c4ccc(CCC(=O)O)cc4)cn4ccnc34)cc2)cc1: > 50 µM
- CN(C)CCNC(=O)c1cccc(-c2cn3ccnc3c(Nc3ccc(Cl)cc3)n2)c1: > 50 µM
- Clc1ccccc1-c1cn2ccnc2c(NCc2ccccn2)n1: > 50 µM

Request: Can you look up IC50 on JAK3 (Homo sapiens, UniProt P52333) for O=C(O)CCc1ccc(-c2cn3ccnc3c(NCc3ccco3)n2)cc1 ?
Result: < 50 µM

Request: Give recorded IC50 with JAK3 (Homo sapiens, UniProt P52333) for the following compound: CC(=O)Nc1cccc(-c2cn3ccnc3c(Nc3ccc(N4CCOCC4)cc3)n2)c1
Result: > 50 µM

Request: Kindly state the measured IC50 obtained for O=C(O)c1ccc(-c2cn3ccnc3c(N3CCN(c4ccccn4)CC3)n2)cc1 with JAK3 (Homo sapiens, UniProt P52333).
Result: > 50 µM

Request: What measured IC50 is associated with Oc1ccc(-c2cn3ccnc3c(N3CCOCC3)n2)cc1 [drawing 90] on JAK3 (Homo sapiens, UniProt P52333)?
Result: > 50 µM

Request: What value of IC50 on JAK3 (Homo sapiens, UniProt P52333) does O=C(O)CCc1ccc(-c2cn3ccnc3c(NCCc3ccncc3)n2)cc1 have?
Result: < 50 µM

Request: API: value(readout= IC50, system= JAK3 (Homo sapiens, UniProt P52333), query= COc1ccc(Nc2nc(-c3ccccc3F)cn3ccnc23)cn1 )
Result: > 50 µM

Request: Which IC50 is reported with JAK3 (Homo sapiens, UniProt P52333) for this entry: CC(C)[C@H](CO)Nc1nc(-c2ccc(C(=O)O)cc2)cn2ccnc12 ?
Result: < 50 µM

Request: Tell me reported IC50 for CCN(CCO)c1ccc(Nc2nc(-c3ccccc3Cl)cn3ccnc23)cc1 , tested with JAK3 (Homo sapiens, UniProt P52333).
Result: < 50 µM

Request: # returns recorded IC50 (system: JAK3 (Homo sapiens, UniProt P52333)) for OCc1ccccc1-c1cn2ccnc2c(Nc2ccc(N3CCOCC3)cc2)n1 [drawing 142]
Result: > 50 µM

Request: # get_value(readout= IC50, system= JAK3 (Homo sapiens, UniProt P52333)) for c1ccc2cc(-c3cn4ccnc4c(Nc4ccc(N5CCOCC5)cc4)n3)ccc2c1
Result: > 50 µM

Request: Look up IC50 with JAK3 (Homo sapiens, UniProt P52333) for this compound: Fc1ccccc1-c1cn2ccnc2c(Nc2ccc(N3CCOCC3)cc2)n1
Result: > 50 µM

Request: Fill in the recorded IC50 for this compound, with JAK3 (Homo sapiens, UniProt P52333) as test system: CN(C)C(=O)COc1cccc(Nc2nc(-c3ccccc3)cn3ccnc23)c1
Result: > 50 µM

Request: Return IC50 measured with JAK3 (Homo sapiens, UniProt P52333) given this compound: c1cn2cc(-c3ccc4c(c3)OCO4)nc(NC3CC3)c2n1
Result: > 50 µM

Request: Quick check: IC50 on JAK3 (Homo sapiens, UniProt P52333), item c1ccc(CN2CC[C@@H](Nc3nc(-c4ccc5c(c4)OCO5)cn4ccnc34)C2)cc1 ?
Result: > 50 µM

Request: Give the reported IC50 for CCCC/C=C/c1cn2ccnc2c(NCCc2cccnc2)n1 (system: JAK3 (Homo sapiens, UniProt P52333)).
Result: < 50 µM

Request: API: value(readout=IC50, system=JAK3 (Homo sapiens, UniProt P52333)) for record OCCc1ccc(Nc2nc(-c3ccccc3F)cn3ccnc23)cc1
Result: < 50 µM

Request: Write down the reported IC50 of CN(C)c1ccc(-c2cn3ccnc3c(NC3CC3)n2)cc1 , test system: JAK3 (Homo sapiens, UniProt P52333).
Result: < 50 µM
